Collected pKi values appear next to each entry.
target: P450 1A1 (Homo sapiens, UniProt P04798); assay: P450 1A1-dependent deethylation of resorufin ethyl ether; assay type: biochemical
Sequence (P04798 whole entry): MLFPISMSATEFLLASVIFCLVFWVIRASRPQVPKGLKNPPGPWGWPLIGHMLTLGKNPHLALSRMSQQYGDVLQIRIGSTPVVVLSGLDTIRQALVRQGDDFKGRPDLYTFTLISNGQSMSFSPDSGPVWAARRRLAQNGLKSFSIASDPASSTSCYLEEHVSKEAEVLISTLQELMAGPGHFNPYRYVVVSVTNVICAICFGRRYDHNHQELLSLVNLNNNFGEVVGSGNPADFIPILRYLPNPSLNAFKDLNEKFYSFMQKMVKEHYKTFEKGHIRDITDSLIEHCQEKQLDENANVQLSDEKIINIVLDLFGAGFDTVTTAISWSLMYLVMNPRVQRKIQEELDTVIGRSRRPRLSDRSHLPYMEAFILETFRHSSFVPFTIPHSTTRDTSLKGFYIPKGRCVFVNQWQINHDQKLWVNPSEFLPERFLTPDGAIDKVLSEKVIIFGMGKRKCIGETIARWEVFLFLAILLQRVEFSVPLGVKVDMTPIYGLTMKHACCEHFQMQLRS
The meaning of pKi here: minus log10 of the concentration in molar units.

Field: example entries. Status: answers known.
C#Cc1ccc2cc(-c3ccccc3)c(=O)oc2c1 [7E3PC, 7-ethynyl-3-phenylcoumarin, reference compound]	6.13
C#Cc1ccccc1-c1cc(=O)c2ccccc2o1 [2′EF, 2′-Ethynylflavone]	5.79
C#Cc1cccc2oc(-c3ccccc3)cc(=O)c12 [5EF, 5-Ethynylflavone]	5.91

Qu. So what does the record say about pKi for C#Cc1ccc2oc(-c3ccccc3)cc(=O)c2c1 [6EF, 6-Ethynylflavone] ?
Ans. 7.46
